Biological target: GLI1 (ΔGLI-DM) (Homo sapiens, UniProt P08151, E250A/E298A)
Sequence (P08151 234-388 E250A/E298A limits assumed): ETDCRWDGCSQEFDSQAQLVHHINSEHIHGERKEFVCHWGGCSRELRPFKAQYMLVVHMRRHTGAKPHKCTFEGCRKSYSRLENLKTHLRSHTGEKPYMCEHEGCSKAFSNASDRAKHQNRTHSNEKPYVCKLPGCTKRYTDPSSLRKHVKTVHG
Assay: SPR, ΔGLI-DM immobilized on Ni-NTA chip, GANT61 […] as analyte
Type: binding
pKd: −log10 of the molar value.
measurement_label: pKd

>>> test_value("CN(C)c1ccccc1CN1CCCN(Cc2ccccc2N(C)C)C1c1ccncc1")
4.58
